- Measured On: T1, recombinant biotinylated human PAR2 extracellular domain (residues 1-75), N-terminal AviTag, C-terminal Flag … (human, UniProt P55085 26-75, biotin on the AviTag (enzymatic biotinylation))
- T1 construct: also called Bio-human-PAR2 ECD; human PAR2 ECD; not shown: N-terminal AviTag (Avidity LLC); C-terminal Flag and poly Histidine tags
- Procedure Text: Biacore SPR 25 C, pH 6.0
Property Name: kon (M⁻¹ s⁻¹)
Note: unit M⁻¹ s⁻¹ is implicit; provide only the numeric part.

• PaB670128 Fab (Fab, V domains shown, Fab; also called ZZ1RUE-A01) VH: EVQLLESGGGLVQPGGSLRLSCAASGFTFSSYAMNWVRQAPGKGLEWVSTISYHGHHISYADSHHHRFTISRDNSKNTLYLQMNSLRAEDTAVYYCARIHHDPMDVWGQGTLVTVSS VL: SIELTQPPSVSVSPGQTASITCSGDNLGKKYVQWYQQKPGQSPVLVIYDDSNRPSGIPERFSGSNSGNTATLTISGTQAMDEADYYCQTWDGNPTTGETNVFGGGTKLTVL = 2.22e+06

// next item, kon requested
Name the recorded kon for PaB670129 Fab (Fab, V domains shown, Fab; also called ZZ1RUE-F02) VH: EVQLLESGGGLVQPGGSLRLSCAASGFTFSSYAMNWVRQAPGKGLEWVSTISYHGSHISYHDSVHHRFTISRDNSKNTLYLQMNSLRAEDTAVYYCARIHHDPMDVWGQGTLVTVSS VL: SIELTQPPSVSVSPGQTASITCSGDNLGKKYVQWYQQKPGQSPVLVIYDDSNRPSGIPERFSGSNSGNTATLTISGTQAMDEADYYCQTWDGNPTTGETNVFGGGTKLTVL . 1.59e+06
